Target: HIV-1 YU2 gp120 (HIV-1 YU2, UniProt P35961 32-498)
Test: SPR
experimentalReadout: k-1 (step 1, dissociation) (s⁻¹)
Give bare numbers, in s⁻¹.

1) MVN_G43E/Q81K/M83R/G85Q (natural protein) MPNFSHTCSSINYDPDSTILSAECQARDGEWLPTELRLSDHIENIDGELQFGDQNFQETCQDCHLEFGDGEQSVWLVCTCKTRDQEWKSTQILLDSQIDNNDSQLEIG: 0.078

Would you mind giving k-1 (step 1, dissociation) for every binder in the list below?
1. MVN_Q81K (natural protein) MPNFSHTCSSINYDPDSTILSAECQARDGEWLPTELRLSDHIGNIDGELQFGDQNFQETCQDCHLEFGDGEQSVWLVCTCKTMDGEWKSTQILLDSQIDNNDSQLEIG
2. MVN_M83R (natural protein) MPNFSHTCSSINYDPDSTILSAECQARDGEWLPTELRLSDHIGNIDGELQFGDQNFQETCQDCHLEFGDGEQSVWLVCTCQTRDGEWKSTQILLDSQIDNNDSQLEIG

1. 0.16
2. 0.05

Param item = MVN_Q81K/M83R/G85Q (natural protein) MPNFSHTCSSINYDPDSTILSAECQARDGEWLPTELRLSDHIGNIDGELQFGDQNFQETCQDCHLEFGDGEQSVWLVCTCKTRDQEWKSTQILLDSQIDNNDSQLEIG ; retrieve measured k-1 (step 1, dissociation).
0.058
